experiment_summary: in vitro
test_parameters: rat, plasma
*1 amine or outer side, *2 acyl side, *3 side chain or, on linkers, in order; H or OH if unused. Where a SMILES comes first, the peptide text is derived from it. [ ]: non-standard residue; d: D form. Gly(N-4-hydroxybenzyl) = O=C(O)CNCc1ccc(O)cc1; X1 = O=C(CN(Cc1ccc(C(F)(F)F)cc1)[*:1])[*:2]; Gly(N-cPent) = O=C(O)CNC1CCCC1; Gly(NCH2cPr) = O=C(O)CNCC1CC1; Nphe = O=C(O)CNCc1ccccc1
Provide the recorded remaining at 2 h, 1 μM for the entries that follow.

Request: Which remaining at 2 h, 1 μM is reported for this compound? NCC(=O)N(CC(=O)N(CC(=O)N(CC(=O)N(CC(N)=O)Cc1ccc(C(F)(F)F)cc1)Cc1ccccc1)Cc1ccccc1)C1CCCC1 [DS-47, Ngly-Ncpe-Nbn-Ntfb-Nbn-NH2] (H-G[Gly(N-cPent)][Nphe][Nphe][X1]-NH2)
Result: > 100%

Request: Now the compound NCC(=O)N(CCC(=O)O)CC(=O)N(CC(=O)N(CC(=O)N(CC(N)=O)Cc1ccccc1)Cc1ccc(C(F)(F)F)cc1)Cc1ccc(C(F)(F)F)cc1
Result: > 100%

Request: Another compound to look at: NCC(=O)N(CC(=O)N(CC(=O)N(CC(=O)N(CC(N)=O)Cc1ccccc1)Cc1ccc(O)cc1)Cc1ccc(O)cc1)CC1CC1 [DS-31, Ngly-Ncpr-Ntyr-Ntyr-Nbn-NH2] (H-G[Gly(NCH2cPr)][Gly(N-4-hydroxybenzyl)][Gly(N-4-hydroxybenzyl)][Nphe]-NH2)
Result: > 100%
